assay: Cytotoxicity against African green monkey Vero cells assessed as decrease in cell viability after 3 to 4 days by alamar blue assay; assay type: cell-based; settings: chlorocebus sabaeus, read-out: ED50 (the source's name)
measure name: CC50 (µM)

>>> df
                            smiles_data  relational_operator  test_value
0  CCCCCCCCCCNCC(F)(P(=O)(O)O)P(=O)(O)O                    =          20
1        CCCCNCC(F)(P(=O)(O)O)P(=O)(O)O                    >         200
2   CCCCCCCCCNCC(F)(P(=O)(O)O)P(=O)(O)O                    =          15
3    CCCCCCCCNCC(F)(P(=O)(O)O)P(=O)(O)O                    =         162
4     CCCCCCCCCCCNC(P(=O)(O)O)P(=O)(O)O                    =          10
